- assay.remarks: Cytotoxicity assay in host cells
- Type: cell-based
- condition.description: mouse, primary microglial cultures (mixed astrocytes/microglia)
Quick reference for CC50 at 48 h among some compounds

O=C(CCCCCCC(=O)Nc1ccccc1)NO [SAHA, Suberoylanilide Hydroxamic Acid] : > 20 µM

q: Returns the measured CC50 at 48 h for the input compound. Input: CN1CCc2c(c3ccccc3n2Cc2ccc(C(=O)NO)cc2)C1
a: > 20 µM

====

- assay.remarks: Cytotoxicity assay in host cells
- Format: cell-based, Human
- condition.description: human, NDHF fibroblasts, CC50, NDHF fibroblasts, treatment for 120 h with higher concentrations (20–80 μM)
quantity: CC50 at 120 h (µM)
Reply numerically in µM, unit not repeated.

q: Returns the measured CC50 at 120 h for the input molecule. Input: CN1CCc2c(c3ccccc3n2Cc2ccc(C(=O)NO)cc2)C1
a: 29.9

====

- Test system: i. p. (intra peritoneal) macrophages
- assay.remarks: Cytotoxicity assay in host cells
- Assay type: cell-based, mouse
- condition.description: read-out: Macrophages CC50; 48h
quantity: CC50
Report as: number unit

O=C(CCCCCCC(=O)Nc1ccccc1)NO [SAHA, Suberoylanilide Hydroxamic Acid] : 4.61 µM

Let's switch to this compound now.
q: Returns the measured CC50 for the input compound. Input: CN1CCc2c(c3ccccc3n2Cc2ccc(C(=O)NO)cc2)C1 [TST, Tubastatin A]
a: 13.5 µM
